Tested on: Streptococcus sp. 'group A'
Experiment: Streptococcus pyogenes SK(-)GAS viability under kanamycin – luminescence, BacTiterGlo, confirmation, counter-screen for streptokinase expression inhibitor project, dose response (AID 1900)
Assay type: functional, organism-based
Activity calls are given as the source filed them.
measuredParameter: EC50

Worked cases, answers included:
Cc1cc(=O)c(C(=O)O)cn1Nc1ccc(Cl)cc1 = 3.15 µM (active)
CC(C)N1CCc2c(sc(NC(=O)c3ccc(S(=O)(=O)N(C)CC4CCCO4)cc3)c2C(N)=O)C1 (stereo unspecified) = > 150 µM (not active)
O=C(CCC(=O)Nc1cc(C(F)(F)F)ccc1Cl)N/N=C\c1cc([N+](=O)[O-])ccc1O = 0.675 µM (active)

# molecule COc1cc(/C=C/C(=O)OC2CC3CCC2(C)C3(C)C)ccc1O (stereo unspecified) ; its EC50 = 6.88 µM (active)

# molecule COc1ccc(-c2nnc(NC(=O)C3CCCN3S(=O)(=O)c3cccs3)o2)cc1 (stereo unspecified) ; its EC50 = > 150 µM (not active)

====

Each item that follows carries a reported EC50.
Target: Streptokinase A (Streptococcus pyogenes serotype M1, UniProt P10520)
Sequence (P10520 whole entry): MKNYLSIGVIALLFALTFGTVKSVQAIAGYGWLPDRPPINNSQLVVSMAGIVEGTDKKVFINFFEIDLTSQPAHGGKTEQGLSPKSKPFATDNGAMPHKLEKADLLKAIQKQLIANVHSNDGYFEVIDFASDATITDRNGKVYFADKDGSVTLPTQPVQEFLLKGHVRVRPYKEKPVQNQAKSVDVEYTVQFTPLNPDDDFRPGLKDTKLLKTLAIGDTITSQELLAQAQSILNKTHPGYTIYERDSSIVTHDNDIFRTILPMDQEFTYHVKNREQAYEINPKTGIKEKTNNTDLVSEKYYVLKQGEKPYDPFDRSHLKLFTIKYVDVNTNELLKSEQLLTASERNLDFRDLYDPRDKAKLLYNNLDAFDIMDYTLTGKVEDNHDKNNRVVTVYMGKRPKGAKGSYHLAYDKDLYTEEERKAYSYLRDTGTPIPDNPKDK
Assay: viability-normalized secreted streptokinase activity reduction – plasminogen activation absorbance, OD405, dose response (AID 1914);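 further: secreted streptokinase activity via plasminogen activation per viability signal from cell pellet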
Format: functional, Streptococcus pyogenes M1 GAS
Active and inactive are the calls of the source.

Worked cases, answers included:
CCS(=O)(=O)Nc1ccc(-c2cc(-c3ccccc3)c3cc(C)ccc3n2)cc1 = > 150 µM (not active)
O=C(Nc1nc(-c2ccccn2)cs1)c1cccc(-n2cnnn2)c1 = > 150 µM (not active)
CCCCCn1c(CN2CCN(c3cc(Cl)ccc3C)CC2)nc2c1c(=O)[nH]c(=O)n2C = > 150 µM (not active)
Cc1ccc(-c2[nH]nc(N)c2N=Nc2ccccc2C)cc1 = > 150 µM (not active)

# compound "O=C(Cn1cn[n+](CC(=O)c2ccc(Cl)cc2Cl)c1)c1ccc([N+](=O)[O-])cc1" ; its EC50 = 21.4 µM (active)

====

// each record: one item and its AC50 for UniProt P05177
Sequence (P05177 whole entry): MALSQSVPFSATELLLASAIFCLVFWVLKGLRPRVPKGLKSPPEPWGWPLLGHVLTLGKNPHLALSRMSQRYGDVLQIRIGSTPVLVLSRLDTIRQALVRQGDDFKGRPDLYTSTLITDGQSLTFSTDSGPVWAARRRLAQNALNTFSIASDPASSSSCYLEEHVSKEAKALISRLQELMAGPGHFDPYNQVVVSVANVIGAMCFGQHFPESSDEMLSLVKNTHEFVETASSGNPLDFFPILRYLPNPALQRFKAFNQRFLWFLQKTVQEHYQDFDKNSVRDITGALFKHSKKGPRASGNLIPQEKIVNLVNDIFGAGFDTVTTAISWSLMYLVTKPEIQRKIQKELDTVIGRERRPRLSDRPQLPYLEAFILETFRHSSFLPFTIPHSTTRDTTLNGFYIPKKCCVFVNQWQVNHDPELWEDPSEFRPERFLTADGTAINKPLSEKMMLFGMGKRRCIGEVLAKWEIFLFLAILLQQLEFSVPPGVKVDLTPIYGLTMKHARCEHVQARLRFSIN

CS(=O)(=O)c1ccc(/C=N\NC(N)=S)cc1 = 5.01 µM (inconclusive)
CC1CCC2(CC1)N=C(N)Nc1nc3ccccc3n12 (stereo unspecified) = 12.6 µM (inconclusive)
COc1ccc(-n2c(=O)c(CCc3ccccc3)nc3cnc(N4CCOCC4)nc32)cc1 = 15.8 µM (inconclusive)

Next, consider the following molecule.
Tested on UniProt P05177: "Cc1cc2c(O)nc(N)nc2nc1C" . Observed AC50: 6.31 µM (inconclusive)

====

The source made the active and inactive calls.
// each record: one item and its IC50 for UniProtKB P04406
Sequence (P04406 whole entry): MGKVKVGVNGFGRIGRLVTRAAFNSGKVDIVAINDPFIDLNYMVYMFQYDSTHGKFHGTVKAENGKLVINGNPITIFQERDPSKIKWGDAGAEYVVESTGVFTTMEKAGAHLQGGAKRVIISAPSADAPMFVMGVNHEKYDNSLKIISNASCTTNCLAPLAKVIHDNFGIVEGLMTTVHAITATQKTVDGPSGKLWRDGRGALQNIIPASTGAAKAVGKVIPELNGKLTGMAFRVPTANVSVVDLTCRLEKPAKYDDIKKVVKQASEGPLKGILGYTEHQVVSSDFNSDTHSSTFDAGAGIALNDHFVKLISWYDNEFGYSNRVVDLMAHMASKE

COc1ccc(OC)c(C(=O)Nc2cnc3ccccc3c2)c1 = > 100 µM (not active)

Tested on UniProtKB P04406: "CCc1ccc(OC)c(S(=O)(=O)Nc2cccnc2)c1" . Observed IC50: > 100 µM (not active)

Tested on UniProtKB P04406: "O=C(O)/C=C/c1c2ccc(=O)c(O)c-2oc2c(O)c(O)ccc12" . Observed IC50: 15.8 µM (active)

====

Target: Prothrombin (Bos taurus, UniProt P00735)
Test: thrombin protease inhibitors – biochemical, fluorescence polarization, uHTS hits, dose response (AID 602369)
Assay type: functional
Activity calls are given as the source filed them.
measuredParameter: IC50

Worked cases, answers included:
O=C(Nc1ccc(-c2nc3ccccc3s2)c(O)c1)C1=COCCO1 = 91.4 µM (active)
COc1ccc(/N=C\c2oc3ccc4ccccc4c3c2O)cc1 = 3.81 µM (active)
CN(CC(=O)Nc1ccc(Cl)cc1)C(=O)CCc1nc(O)c2c3c(sc2n1)CCCC3 = 26.4 µM (active)
Cc1ccc(/C=C(\C#N)C(=O)Nc2c(C)cccc2C)s1 = 23.5 µM (active)
COc1ccc(C(=O)N2C(=S)NC(=O)/C2=C\c2ccc(C)cc2)cc1 = 37.8 µM (active)

Tested on Prothrombin (Bos taurus, UniProt P00735): "Cc1c(OCC(N)=O)ccc2c(-c3ccccc3)cc(=O)oc12" . Observed IC50: 78.1 µM (active)
